Tested on: EKVX
Test: NCI tumour cell line growth inhibition, 48 h
Activity calls are given as the source filed them. Cut-off read from the data, not from the text of the source: active = GI50 up to about 1.1 µM and inactive = higher.
recorded-metric: GI50

Examples with their reported GI50 follow.
Param item = CC1CCC(=O)NCCCCC(=O)N1 (stereo not given) ; retrieve measured GI50.
> 100 µM (inactive)

Quick check: GI50 of COC(=O)CCC(C)[C@H]1CCC2C3C(C[C@H](OC(C)=O)[C@@]21C)[C@@]1(C)CCC2(C[C@H]1C[C@H]3OC(C)=O)OOC1(CCC(C(C)(C)C)CC1)OO2 (stereo not given in full) ?
4.12 µM (inactive)

Requested field: GI50. Item: COc1ccccc1N1C(=O)CC(=O)N(C(=O)CCCCCCCCC(=O)N2C(=O)CC(=O)N(c3ccccc3OC)C2=S)C1=S
51.8 µM (inactive)

Next:
Field request: GI50 | item: O=C(O)CCN1CCN(CCC(=O)O)CCN(CCC(=O)O)CC1
> 100 µM (inactive)

// GI50 lookup, key: C1=C2C3=[N+](CCCC3)CC2Cc2ccsc21 (stereo not given)
52.6 µM (inactive)

====

System: BT-549
Experiment: NCI tumour cell line growth inhibition, 48 h
Activity calls are given as the source filed them. Rule as the data show it: active = GI50 up to about 1.1 µM and inactive = higher.
recorded-metric: GI50

Would you please look over these solved cases?
Record CS(=O)(=O)O[C@H]1[C@H](O)c2ccccc2[C@@H]1N=[N+]=[N-] : what is its GI50 with BT-549?
> 100 µM (inactive)

// map COc1cc(S(=O)(=O)Nc2ccc(-c3csc(/N=C\c4ccccc4O)n3)cc2)ccc1Cl to recorded GI50 (system: BT-549)
43.7 µM (inactive)

Next:
Give recorded GI50 with BT-549 for the following compound: COc1ccc(OC)c(/C=C2/C(=O)N/C(=N\C(C)=O)N2C)c1
> 100 µM (inactive)

Checklist item: GI50 tested on BT-549, entry CC(C)=CCC[C@@H](C)C1=C(O)C(=O)C(C)=C(c2c(I)c(=O)n(C)c(=O)n2C)C1=O , value?
> 100 µM (inactive)

Item: COc1cc2c(cc1O)C(Cc1ccc(OCc3ccccc3)c(OCc3ccccc3)c1)N(C(=O)NCCc1ccccc1)CC2 (centres undefined) Test system: BT-549 Read-out: GI50 Value: ?
> 100 µM (inactive)

Record Cn1c(S)nnc1-c1csc(-c2ccc(Cl)cc2)n1 : what is its GI50 with BT-549?
22.1 µM (inactive)

====

Test system: TK-10
Experiment: NCI tumour cell line growth inhibition, 48 h
The source made the active and inactive calls. Rule as the data show it: active = GI50 up to about 1.1 µM and inactive = higher.
# Lookup of reported GI50 keyed by entry

Worked cases, answers included:
// query GI50 value for entry Cc1ccc(S(=O)(=O)NC(=O)Nc2ccc(C(=O)O)c(O)c2)cc1
> 100 µM (inactive)

Entry O=c1[nH]c2cccc([N+](=O)[O-])c2c(=O)n1-c1ccc(Cl)cc1 : reported GI50 = ?
14.9 µM (inactive)

Query (compound): CC(C)C1=CC2=CC[C@@H]3[C@](C)(CCC[C@@]3(C)C(=O)O)[C@H]2CC1 ; field requested: GI50
> 66.4 µM (inactive)

Turning to the following compound.
Request the reported GI50 associated with O=C1CSC(c2ccc([N+](=O)[O-])cc2)N1c1ccc(-n2c(-c3ccccc3)nc3ccccc3c2=O)cc1 (configuration not stated)
> 100 µM (inactive)

====

Tested on: SNB-19
Experiment: NCI tumour cell line growth inhibition, 48 h
The source made the active and inactive calls. Cut-off read from the data, not from the text of the source: active = GI50 up to about 1.1 µM and inactive = higher.
// GI50 lookup, one value per entry

Here are 3 compounds together with their reported answers.
Which GI50 value is on record for [N-]=[N+]=Nc1ccccc1C(=O)N1C(=O)c2ccccc2C(=O)N(C(=O)c2ccccc2N=[N+]=[N-])c2ccccc21 ?
60.4 µM (inactive)

GI50 lookup needed for C/C1=C\CC[C@@]2(C)O[C@@H]2C[C@@H]2[C@H](C/C(C)=C/CC1)OC(=O)C21CCN=N1 (some centres undefined) , thanks.
> 75 µM (inactive)

Need GI50 of CCOC(=O)CCC(NC(=O)c1ccc(NCc2ccc3nc(OC)c(OC)nc3c2)c2ccccc12)C(=O)OCC (centres undefined) , thanks.
76.2 µM (inactive)

Next:
Which GI50 is listed for COc1cccc(O)c1-c1cc(=O)c2c(O)c(OC)c(OC)c(OC)c2o1 ?
29.2 µM (inactive)

Dear colleague, I am looking for the recorded GI50 of the following compound: CN(C)CCN(C)P12(Oc3ccccc3O1)Oc1c(Cl)c(Cl)c(Cl)c(Cl)c1O2
56.6 µM (inactive)

Please look up its GI50: CCn1c2c(c3ccccc31)C(c1ccccc1)CC1C(=O)N(c3ccccc3)C(=O)C21 (centres undefined)
50.5 µM (inactive)

Can you share its GI50? I mean this compound: COc1ccccc1/C=C1\C(=O)N(C(=O)c2ccc(NC(C)=O)cc2)N=C1C
> 100 µM (inactive)

Given the compound O=C1NNC2(C(=O)N1)c1ccccc1-c1ccccc12 , what is its reported GI50?
> 10 µM (inactive)

GI50 for C=CCNC(=S)OCCCCCCCCCC ?
30.8 µM (inactive)

Could you tell me which GI50 is on file for C1=C2C3=[N+](CCCC3)CC2Cc2ccsc21 (centres undefined) ?
56.2 µM (inactive)

# get_value(readout='GI50', item= CC1=NN(C(=O)c2ccccc2O)C(=O)/C1=C/c1ccco1 )
7.55 µM (inactive)

Value lookup for GI50; key = CCN(CC)CCn1c(C(C)(C)C)nc2ccccc21
> 100 µM (inactive)

If you can, please state the reported GI50 value of O=P1(C(O)/C=C/c2ccccc2)N(Cc2ccccc2)[C@H](c2ccccc2)[C@@H](c2ccccc2)N1Cc1ccccc1 (some centres undefined) .
24.3 µM (inactive)

I would be grateful if you could share the reported GI50 for Cc1ccc(S(=O)(=O)C2=C(C(C)C)N=NC2(C)C)cc1 .
> 100 µM (inactive)

====

Test system: SNB-75
Assay: NCI tumour cell line growth inhibition, 48 h
The source made the active and inactive calls. Rule as the data show it: active = GI50 up to about 1.1 µM and inactive = higher.
Output constraint: value belongs to y for active, n for inactive

These solved cases illustrate the format of a correct answer.
Lab log entry: COC(=O)C1c2cc3c(cc2C(OC2OC(C)C(OC)C(C)(OC)C2OC)CC1(C)O)C(=O)c1c(O)cc2c(c1C3=O)OC1OC2(C)C(O)C([N+](C)(C)[O-])C1O (stereo unspecified) — outcome as called in the assay?
y

State the result this test recorded for O=c1oc2cc(O)ccc2c2[nH]c3cc(O)ccc3c12 .
n

Further cases:
What is the recorded call for this compound in the test? Nc1ccc2nc(Nc3ccc(Cl)c(Cl)c3)cnc2c1
n

Recorded test outcome, item CC12C(=O)CC(CC1=O)C2(C)C
n

So what was the verdict on Oc1cc(Cc2ccccc2)c(Cc2ccccc2)cc1O in this test?
n

Fill in: this test's call for O=P1(C(O)/C=C/c2ccccc2)N(Cc2ccccc2)[C@H](c2ccccc2)[C@@H](c2ccccc2)N1Cc1ccccc1 (stereo partly specified) is ___
n

Outcome? O=C1Nc2ccccc2/C1=N/Nc1ccccc1[N+](=O)[O-]
n

Fill in: this test's call for COc1ccc(/N=N/C(=O)NC(CC(C)C)C(=O)NCC(=O)O)cc1 (stereo unspecified) is ___
n

Per the assay record, what outcome was assigned to C=C1C(=O)O[C@H]2C/C(C)=C/CC[C@@]3(C)O[C@](C)(CC[C@@H]3I)[C@@H](I)C[C@@H]12 ?
n

====

System: PC-3
Assay: NCI tumour cell line growth inhibition, 48 h
Active and inactive are the calls of the source. Rule as the data show it: active = GI50 up to about 1.1 µM and inactive = higher.
Returns: one label drawn from TRUE (active), FALSE (inactive)

The examples below pair each entry with its known result.
State the result this test recorded for COc1cc(N(CCC#N)CCC#N)ccc1C(=N/NC(=O)c1cc(Br)ccc1O)/N=N/c1ccccc1 .
FALSE

Dear all, I need the recorded test outcome for CCCCN(CCCC)CC(O)c1cc(-c2ccc(C(F)(F)F)cc2)nc(-c2ccc(C(F)(F)F)cc2)c1 (stereo not drawn) , thank you.
FALSE

Which outcome was entered for the compound Cc1c(C#N)c(=N)oc2ccccc12 in this test?
FALSE

Could you now look at the following compound, please?
How did this test come out for CC(=N/NC(=S)N1CCCCCC1)/C(C)=N\NC(=S)N1CCCCCC1 ?
FALSE

====

Tested on: U-251
Assay: NCI tumour cell line growth inhibition, 48 h
Activity calls are given as the source filed them. Cut-off read from the data, not from the text of the source: active = GI50 up to about 1.1 µM and inactive = higher.
Write down the outcome that applies. Available outcomes: true = active, false = inactive

Observe how each entry below is paired with its result.
Please state the recorded outcome for this compound: CCOC(=O)CNC1=NNS(=O)(=O)c2ccccc21
false

Which result was noted for this compound in the test: COC(=O)c1cc2c(c3c1CC(Cc1ccccc1)C3=O)CCC2 (configuration not stated)
false

Just curious, what result did CCCCn1cc(C(=O)O)c(=O)c2c3sccc3ccc21 get here?
false

Outcome logged for CC(C)(C)C(=O)Nc1c(C=O)ccc2[nH]cnc12 in this assay:
false

Could you please tell me the result logged for O=C(NCCCNCCCNC(=O)c1cc(-c2ccccc2)nc2ccccc12)c1cc(-c2ccccc2)nc2ccccc12 in this assay?
false

Continuing:
Recorded test outcome, item COc1ccccc1/C=C1\C(=O)N(C(=O)c2ccc(NC(C)=O)cc2)N=C1C
false

Assay result, entry O=c1ccn(C2OC(CN(O)CCC3C(O)C(CO)OC3n3ccc(=O)[nH]c3=O)C(O)C2O)c(=O)[nH]1 (configuration not stated) — outcome?
false
